Task for the reader: assign each of the following compounds its reported % Suppression vs. Vehicle.
- system-tested: mouse TLR7 (Mus musculus)
- Sequence (P58681 27-1050): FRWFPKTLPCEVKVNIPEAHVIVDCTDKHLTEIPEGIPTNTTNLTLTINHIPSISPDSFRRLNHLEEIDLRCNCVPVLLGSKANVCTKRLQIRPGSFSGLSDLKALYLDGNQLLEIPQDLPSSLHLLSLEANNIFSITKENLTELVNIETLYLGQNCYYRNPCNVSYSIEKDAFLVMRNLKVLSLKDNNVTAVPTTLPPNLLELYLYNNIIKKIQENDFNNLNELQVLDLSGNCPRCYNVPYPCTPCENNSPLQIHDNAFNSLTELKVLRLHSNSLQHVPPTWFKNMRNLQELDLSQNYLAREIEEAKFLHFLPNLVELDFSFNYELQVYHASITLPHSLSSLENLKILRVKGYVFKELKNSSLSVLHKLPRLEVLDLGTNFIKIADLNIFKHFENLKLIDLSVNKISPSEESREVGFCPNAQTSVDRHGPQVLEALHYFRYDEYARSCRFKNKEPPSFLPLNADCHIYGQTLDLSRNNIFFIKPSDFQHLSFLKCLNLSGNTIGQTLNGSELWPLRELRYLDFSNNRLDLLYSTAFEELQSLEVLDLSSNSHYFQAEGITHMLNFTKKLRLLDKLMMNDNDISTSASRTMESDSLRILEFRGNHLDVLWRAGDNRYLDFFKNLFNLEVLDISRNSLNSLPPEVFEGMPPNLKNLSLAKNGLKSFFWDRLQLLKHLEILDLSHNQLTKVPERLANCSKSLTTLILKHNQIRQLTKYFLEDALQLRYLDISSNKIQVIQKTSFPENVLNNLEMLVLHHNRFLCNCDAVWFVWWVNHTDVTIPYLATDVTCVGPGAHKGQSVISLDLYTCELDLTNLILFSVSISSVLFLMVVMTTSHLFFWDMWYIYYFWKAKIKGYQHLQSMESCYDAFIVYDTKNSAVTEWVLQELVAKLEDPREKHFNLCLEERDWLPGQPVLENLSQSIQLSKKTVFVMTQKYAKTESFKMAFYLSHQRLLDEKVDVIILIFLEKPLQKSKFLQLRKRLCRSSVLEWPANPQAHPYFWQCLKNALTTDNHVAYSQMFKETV
- experiment-summary: Short-term in vivo (STIV) assay: oral dosing, R848 s.c., plasma IL-6
- Design: female BALB/c mice (Jackson Labs, Bar Harbor, Me.) were dosed by oral gavage; tissue Jackson Labs; host or cells: living female BALB/c mice; plasma IL-6 after s.c. R848
- condition-label: 13 h; 100 mg/kg
- Protocol: Figure Legend: Female BALB/c mice were dosed by oral gavage with Vehicle alone (0.5% aqueous methyl-cellulose) or compound formulated in Vehicle at 33 mg/kg, 100 mg/kg or 300 mg/kg. […] (FIG. 1A). Short-term in vivo (STIV) assay: To assess compound potency in vivo against mouse TLR7, a short-term in vivo (STIV) assay was utilized. […] The plasma IL-6 level following R848 stimulation was then measured by ELISA to assess compound potency and duration-of-action. […]
Dear colleague, please return just the value in %, with no unit written.

Request: I am curious: what % Suppression vs. Vehicle value has been reported for CC1CN(c2ccc(C#N)c3ncccc23)CC(C(=O)Nc2cnn(C3CCNCC3)c2)O1 (centres unmarked) [ER-899285] ?
Response: 0

Request: Need % Suppression vs. Vehicle of CC1CN(c2ccc(C#N)c3ncccc23)CC(C(=O)NC2C3CNCC32)O1 (centres unmarked) [ER-899418] , thanks.
Response: 10

Request: What value of measured % Suppression vs. Vehicle is listed for CC1CN(c2ccc(C#N)c3ncccc23)CC(C(=O)NC2CCCN(C)C2)O1 (centres unmarked) [ER-899688] ?
Response: 96

Request: Need % Suppression vs. Vehicle, item CC1CN(c2ccc(C#N)c3ncccc23)CC(C(=O)NC2CNCC2F)O1 (centres unmarked) [ER-899476]
Response: 65

Request: # get_value(readout='% Suppression vs. Vehicle', item= C[C@@H]1CN(c2ccc(C#N)c3ncccc23)C[C@H](C(=O)N(C)[C@@H]2CCCNC2)O1 [ER-899616] )
Response: 27

Request: Given C[C@@H]1CN(c2ccc(C#N)c3ncccc23)C[C@H](CN2CCN[C@@H](C)C2)O1 [ER-887270] , state its recorded % Suppression vs. Vehicle.
Response: 81

Request: Fill blank: measured % Suppression vs. Vehicle of the compound CC1CN(c2ccc(C#N)c3ncccc23)CC(C(=O)NC2CCCNCC2)O1 (centres unmarked) [ER-899417] is ____.
Response: 0

Request: What measured % Suppression vs. Vehicle goes with CC1CN(c2ccc(C#N)c3ncccc23)CC(C(=O)N2CCC3(CCNCC3)CC2)O1 (centres unmarked) [ER-899193] ?
Response: 52
